Reference source: the supplement of paper PMC6555819

- System: PPARg:RXRa (NR concentration 180 nM, RXRa partner concentration 90 nM)
- Run Description: PBM binding z-score (relative to random genomic background probes); higher = stronger binding; sequences stand for … in GC…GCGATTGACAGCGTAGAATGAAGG
Assign T to entries whose PBM binding z-score meets or exceeds 1; assign F to the rest.

Can TCGAGTAGGTTAGACGGGGCATTCAGCCAACATA be said to have PBM binding z-score at or above 1?
F

Can CCTAGCAAGCCAATCTGGGTCACTCAAGGCTTGA be said to have PBM binding z-score at or above 1?
T

Can CGAACTAGGTCAGAACTGGACAGTGAAGGATGAT be said to have PBM binding z-score at or above 1?
T

Can AGAACGAGGGCAATGAGTTGATAGGACGGGTGGC be said to have PBM binding z-score at or above 1?
T

Can AGTCAAAGTTCACTAGGTAACATAAGATTCAGCT be said to have PBM binding z-score at or above 1?
T

Can CTCGTAAGGTCGGTTGAGGTGAGTATACGGATAA be said to have PBM binding z-score at or above 1?
F

* * *

- Test system: RARb:RXRa (NR concentration 270 nM, RXRa partner concentration 90 nM)
- Run Description: PBM binding z-score (relative to random genomic background probes); higher = stronger binding; sequences stand for … in GC…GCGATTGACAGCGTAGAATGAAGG
We'd kindly ask you to apply these PBM binding z-score classes: low interval = under 1, middle interval = from 1 up to 3, high interval = 3 and over

For ATCGAAAGGCCGTGAGGTGAGTATACAGAAAGGC , which PBM binding z-score bin applies?
middle interval

For CCGACTGTGGCATAAGGTTACCATAAGCCAGCCC , which PBM binding z-score bin applies?
low interval

For CCTGCTAGGTCAATGGTGAGCTAAAGCAGCTCGC , which PBM binding z-score bin applies?
high interval

For ATCTCTAGGTGACAAGTTCAGTGAAAGAGAGGAC , which PBM binding z-score bin applies?
middle interval

For ATCTCTAGTTAAAGTTCAGTGAAAGATCGATAGA , which PBM binding z-score bin applies?
middle interval

For ACTATTAGTTGATACGAGGGCAACCGATAGGTTG , which PBM binding z-score bin applies?
middle interval

For TCGAGTAGGTTAGTGGCATTCAGAATGGCGTCGA , which PBM binding z-score bin applies?
low interval

For CCTAACAGGCCAATCTGGGTCACTCAAGGCTTGA , which PBM binding z-score bin applies?
middle interval

For CGTCAAAGTTCAAGGTATCGTAACAGAAAGCAGC , which PBM binding z-score bin applies?
high interval

For ACTACTAGTTGAGACGAGGGCAACCGATAGGTTG , which PBM binding z-score bin applies?
low interval

For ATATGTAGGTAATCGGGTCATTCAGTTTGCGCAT , which PBM binding z-score bin applies?
middle interval

For ATCTCTAGGTAAAGATAGATCAGTGAATGCAAAT , which PBM binding z-score bin applies?
low interval

For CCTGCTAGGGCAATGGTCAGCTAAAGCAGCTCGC , which PBM binding z-score bin applies?
middle interval

For CGTCCAAGGTCAAGGTCAGTGAAAGAGACTCGAA , which PBM binding z-score bin applies?
high interval

For GCTGCTAGGTCAGGTTGGTCAGATAACGGGTACG , which PBM binding z-score bin applies?
high interval

For ATACCAAGGTGAACGTGAGGTCGTTGATACTAAC , which PBM binding z-score bin applies?
middle interval

For ATCTCTAGGTAAAGATAGTTAAGTGAATGCAAAT , which PBM binding z-score bin applies?
low interval

For TCTTGTAGATCAATAGAGGATAAGAAAGTGCGCT , which PBM binding z-score bin applies?
low interval

For CCAGACAGGTGTAAGGTAACTCAGTCTGGTACGC , which PBM binding z-score bin applies?
low interval

For GGAACGAGGGAAAAGTTGATAGCATCTGTCGACG , which PBM binding z-score bin applies?
low interval

For CCTACCGGGCCAAGGTCATTGATCAGTCAAAGCA , which PBM binding z-score bin applies?
high interval

For TCTTGTAGATCAACAGGAGGTTAAGAACGATCGA , which PBM binding z-score bin applies?
low interval

For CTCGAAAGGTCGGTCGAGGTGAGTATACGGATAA , which PBM binding z-score bin applies?
high interval

For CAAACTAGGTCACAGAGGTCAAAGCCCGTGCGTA , which PBM binding z-score bin applies?
high interval

For TCGGCTAGGTCAACGATGGTCAGCTAATCTGCTA , which PBM binding z-score bin applies?
high interval

For TCTCGGAGGACACGAAGGTCGGAGCTTTCCAGAG , which PBM binding z-score bin applies?
middle interval

* * *

- System: PPARg:RXRa IVT, anti-PPARg (NR concentration 270 nM, RXRa partner concentration 90 nM)
- Run Description: PBM binding z-score (relative to random genomic background probes); higher = stronger binding; sequences stand for … in GC…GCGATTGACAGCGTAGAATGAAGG
Reported Property: PBM binding z-score
Please give the numeric answer without any surrounding text.

Which PBM binding z-score reading was recorded for the sequence CGCCCAAGGTCAATGCTAGGTCAGTGAAAGCATT ?
3.47

Which PBM binding z-score reading was recorded for the sequence ATCGCAAGGTCGAAGGTGAGTATACCCACCCGAA ?
1.21

Which PBM binding z-score reading was recorded for the sequence CCAGCTAGGTCATGGTCAGCTAATCTACAGTATG ?
4.17

Which PBM binding z-score reading was recorded for the sequence CCGATTGGGGCAAGGTTACCATAACGCACAGCCA ?
1.29

Which PBM binding z-score reading was recorded for the sequence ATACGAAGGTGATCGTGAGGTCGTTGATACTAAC ?
0.827

Which PBM binding z-score reading was recorded for the sequence AGAACGAGGGCCATGAGTTGATAGCACGGGTGGC ?
0.141

Which PBM binding z-score reading was recorded for the sequence ATTCAAAGTTCACTAGGTAACGTAAGATTCAGCT ?
4.4

Which PBM binding z-score reading was recorded for the sequence AGTCAAAGTTCAGGACGAGGTAACTTAAAGCACG ?
2.05

Which PBM binding z-score reading was recorded for the sequence CTCGAAAGGTCGGTTGAGGTGAGTGTACGGATAA ?
1.3

Which PBM binding z-score reading was recorded for the sequence CAGACTGGGGCAAGGTTACCATAACGCACAGCCA ?
4.53

Which PBM binding z-score reading was recorded for the sequence TCGAGTAGGTTAGGGGCATTCTGAATGGCGTCGA ?
1.58

Which PBM binding z-score reading was recorded for the sequence ATATGTAGATTAAGGGTCATTCAGGTTGGTTCGC ?
3.34

* * *

- Tested on: PPARg:RXRa (NR concentration 180 nM, RXRa partner concentration 90 nM)
- Run Description: PBM binding z-score (relative to random genomic background probes); higher = stronger binding; sequences stand for … in GC…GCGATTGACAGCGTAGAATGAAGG
We'd kindly ask you to apply these PBM binding z-score classes: low end = under 0.7, middle = from 0.7 up to 5, high end = 5 and over

For GCATACAGGTGAAACGCAGGTAACTCAGGGTGGC , which PBM binding z-score bin applies?
middle

For GTACCAAGCTGAATAGGTCGTTGATGAGTAGGCG , which PBM binding z-score bin applies?
low end

For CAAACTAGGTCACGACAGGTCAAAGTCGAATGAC , which PBM binding z-score bin applies?
high end

For AATACAGGGTCATCGTAGGCCAGAGTCCGCACAG , which PBM binding z-score bin applies?
high end

For TAGCCTAGGTCAGATCGGGCCCGTATACGCTATA , which PBM binding z-score bin applies?
low end

For CCTAGTTGGTCACGGTCACACACGCTATAGGTAC , which PBM binding z-score bin applies?
middle

For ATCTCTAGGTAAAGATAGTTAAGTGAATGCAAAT , which PBM binding z-score bin applies?
middle

For GCAATTAGTTGAAAGGGCAACCGAATGATTCTCG , which PBM binding z-score bin applies?
middle

For GCGACTGGGGCATCAGCAGGTTCCCATAACTTAA , which PBM binding z-score bin applies?
low end

For CGAACTAGGTCATTGACAGGACGGTGAATAGTAA , which PBM binding z-score bin applies?
high end

For CCTGCTAGGTCATGGTGAGCTAATCTACAGTATG , which PBM binding z-score bin applies?
middle

For CCTAGTAGGTCAAGGTCACACACGCTATAGGTAC , which PBM binding z-score bin applies?
high end

For TCTTGTAGATTAAGCAGGTTAAGAAAGCCTGAGT , which PBM binding z-score bin applies?
low end

For CCTACTGGGCCAAAGCTCATTGATTCCAATGCTC , which PBM binding z-score bin applies?
middle

For CCTATTATTTGACCATAAGGGCAACCGAAGCTCG , which PBM binding z-score bin applies?
low end

For GCAGAGAGGTGAAACGCAGGTAACTCAGGGTGGC , which PBM binding z-score bin applies?
middle

For AGAACGAGGACAATGAGTTGATAGCACGGGTGGC , which PBM binding z-score bin applies?
middle

For TCTTGTAGATAAATAGAGGTTAAGAAAGTGCGCT , which PBM binding z-score bin applies?
low end

For CAAACTAGGTCGCGAAAGGTCAAAGTCGAATGAC , which PBM binding z-score bin applies?
high end

For GCTGCTAGGTCAGGTTGGTCAGCTAGCGGGTACG , which PBM binding z-score bin applies?
low end

For CCTACTGGGCCATCAGGTCATCGATATCAACGTT , which PBM binding z-score bin applies?
middle

For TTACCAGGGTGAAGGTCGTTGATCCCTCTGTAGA , which PBM binding z-score bin applies?
high end

For AGTCAAAGTTCAGGACGAGGTAACGTACAGCACG , which PBM binding z-score bin applies?
middle

For ATCTCTATGTAACCAAGTTCAGTGAATGCCGAAC , which PBM binding z-score bin applies?
low end

For CCTAGCAGGCCAATCAGGGTCACTCAAGGCTTGA , which PBM binding z-score bin applies?
middle

For CCTACTGGGCCACGAAAGGTCATTTATTCAGTGA , which PBM binding z-score bin applies?
middle

For CAAACTAGGTCACCGCAAGGTCAAAGTCCGCATG , which PBM binding z-score bin applies?
high end

For AGAATGAGGTTCCCAAAGATCAGGGAAACGCTTG , which PBM binding z-score bin applies?
low end

For CCTACTGGGCCAAAAAAGTCATTGATGCCGATAA , which PBM binding z-score bin applies?
low end

For AATACAGGGTCATCGCAGGCCAGAGTACGCACAG , which PBM binding z-score bin applies?
high end

For AGTCAAAGTTCATCTAGGCAACGTAAGATATGCT , which PBM binding z-score bin applies?
high end

For CAGAGTAGGTTATGGGGCATTCAGGCAACGGTGA , which PBM binding z-score bin applies?
middle

For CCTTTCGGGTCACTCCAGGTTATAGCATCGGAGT , which PBM binding z-score bin applies?
middle

For CTACCAAGGTGGACAAGGTCGTTGATTACTATTC , which PBM binding z-score bin applies?
low end

For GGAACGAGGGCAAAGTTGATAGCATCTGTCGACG , which PBM binding z-score bin applies?
high end

For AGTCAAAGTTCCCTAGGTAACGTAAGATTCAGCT , which PBM binding z-score bin applies?
low end

For GGTTACGGGTCAAAGGTTATAGCATGAATAGAAT , which PBM binding z-score bin applies?
high end

For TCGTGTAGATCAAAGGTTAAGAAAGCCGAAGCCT , which PBM binding z-score bin applies?
high end

For TCTTGTAGATCAAGCAGCTTAAGAAAGCCTGAGT , which PBM binding z-score bin applies?
low end

For CCTTACTGGTCAAGGTTATAGCACGGGTGGTACG , which PBM binding z-score bin applies?
middle

For GCAGACAGGTGAAACGCAGGTGACTCAGGGTGGC , which PBM binding z-score bin applies?
low end

For CCAGACAGGTGAAAGGTAACGCAGTCTGGTACGC , which PBM binding z-score bin applies?
high end

For CGCCAAAGTTCAAGGTAACGTAACAGAAAGCAGC , which PBM binding z-score bin applies?
middle

For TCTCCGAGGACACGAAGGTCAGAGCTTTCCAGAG , which PBM binding z-score bin applies?
low end

For TCATATAGGTAATACAGGTGTAAGTCGGCATCTA , which PBM binding z-score bin applies?
middle

For CCTAGCAGGCCAAGCTGGGTCACTCAAGGCTTGA , which PBM binding z-score bin applies?
low end

For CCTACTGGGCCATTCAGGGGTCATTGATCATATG , which PBM binding z-score bin applies?
middle

For ATATGCAGGTTAAGGGTCATTCAGGTTGGTTCGC , which PBM binding z-score bin applies?
high end

For TCTTGTTGATCAGCAGGTTAAGAAAGCTGGCCAA , which PBM binding z-score bin applies?
low end
